# Assay system: T1, Insulin receptor prepared according to Bass et al., 1996: soluble human insulin receptor-immunoglobulin heavy … (human, UniProt P06213 28-956)
# T1 construct: extracellular domain; Eu3+-labelled in TR-FRET; also called IR; sIR-Fc; not shown: immunoglobulin heavy chain constant domains that replace the transmembrane and i
# Test method notes: phage ELISA vs milk
Positions of bridges follow the written chain, without caps; N, C: chain ends. No end group written: not given here.
The following binders are shown together with reported Ratio over Background values.
Kindly report the value followed by its unit.

Study these solved cases before continuing.
# Binder, Ratio over Background
measured = [
    ("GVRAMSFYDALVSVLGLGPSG [20E2B-1-A6-IGFR]", "1.1 fold"),
    ("FFYDCLAALLQGVARYHDLCAVEIT (disulfide 5-20 (inferred)) [20C-4-C7-IGFR]", "1.3 fold"),
    ("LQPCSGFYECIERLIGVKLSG (disulfide 4-10 (inferred)) [20E2Bβ-4-G7-IR]", "1.6 fold"),
    ("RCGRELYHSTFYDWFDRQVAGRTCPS [H2CA-1-A7-IGFR]", "0.6 fold"),
    ("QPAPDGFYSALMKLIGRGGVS [20E2B-3-C8-IGFR]", "1.8 fold"),
]

Then there is this binder:
The value of Ratio over Background measured for the binder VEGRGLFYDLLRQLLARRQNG [20E2B-3-C6-IGFR] turned out to be 1.1 fold
